- TEST_SYSTEM: E2F4 1-180 (UniProt Q16254 1-180)
- Sequence (Q16254 1-180): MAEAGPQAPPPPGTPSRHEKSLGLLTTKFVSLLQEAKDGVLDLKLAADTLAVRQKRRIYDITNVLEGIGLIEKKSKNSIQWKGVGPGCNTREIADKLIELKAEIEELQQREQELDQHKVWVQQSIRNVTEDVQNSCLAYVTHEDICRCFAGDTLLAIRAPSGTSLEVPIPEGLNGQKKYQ
- PROCEDURE_TEXT: SPR; SPR: Biacore X100, SA chip, DNA in PBS (137 mM NaCl, 2.7 mM KCl, 10 mM Na2HPO4, 2 mM KH2PO4, pH 7.4), protein 10-320 nM (Fig. S3D legend prints mM); ITC: 250 mM NaCl, 50 mM Tris-HCl pH 7.5; EMSA: Beyotime kit, 6% native gel; temperatures not stated
- DETAILS: protein: recombinant; tags: His (pET28a); chain copies: 2; label: 5'-biotin on sense strand; blunt
pKd: −log10 of the molar value.
QUANTITY_NAME: pKd

BINDER: Biotin-Cp2 (SPR) (dsDNA) DNA 1: TTAGATTAAAGGTCTTTGT DNA 2: ACAAAGACCTTTAATCTAA
REPORTED: 7.06
